Values from patent US20250049926A1

assay: Solubility measurement of saturated solutions by HPLC at room temperature (0 h and 24 h); type: physicochemical; settings: buffered water with excipients, pH 4, aqueous with cosolvent or surfactant or cyclodextrin, thermodynamic from solid, CBS 30 mM pH 4.0, NaCl 3 mg/mL; SBE-beta-CD 40 mg/mL + Soybean lecithin 10 mg/mL; 0 h; pH exp 4.1

CPD_SMILES	READOUT_UNIT	solubility at 0 h
COc1cc(N2CCNCC2)ccc1Nc1ncc2c(n1)-n1ccc(C(=O)Nc3c(C)cccc3C)c1CC2	µg/mL	2520

* * *

test: Solubility measurement of saturated solutions by HPLC at room temperature (0 h and 24 h); format: physicochemical; details: buffered water with excipients, pH 4, aqueous with cosolvent or surfactant or cyclodextrin, thermodynamic from solid, CBS 30 mM pH 4.0, NaCl 6 mg/mL; SBE-beta-CD 40 mg/mL + Kollidon 12 PF 5 mg/mL; 0 h; pH exp 4.0

CPD_SMILES	solubility at 0 h (µg/mL)
COc1cc(N2CCNCC2)ccc1Nc1ncc2c(n1)-n1ccc(C(=O)Nc3c(C)cccc3C)c1CC2	2510
